test: Toxicity liver stage against HepG2, at 10uM; type: cell-based; set-up: test concentration 10 uM, cell line HepG2-A16-CD81EGFP; conditions: human, HepG2-A16-CD81EGFP cells; read-out: INHIBITION
Recorded cytotoxicity at 10 µM by entry
State the answer as a number, implicitly in %.

| Compound | Unit Of Measure | cytotoxicity at 10 µM |
| --- | --- | --- |
| CC(C)C(NC(=O)Nc1ccccn1)c1cccs1 (configuration not stated) | % | 2.27 |
| CC(NC(=O)c1cc(C(C)C)[nH]n1)C(=O)Nc1ccccc1 (configuration not stated) | % | 10.8 |

Sample CNc1ccc(CC2CCCN(Cc3c[nH]cn3)C2)nn1 (configuration not stated) — what was its cytotoxicity at 10 µM? -1.71

What cytotoxicity at 10 µM value was documented for this compound, `CN1CCN(c2ccccc2NC(=O)NCCc2ccccc2)CC1` ? -4.63

Reported cytotoxicity at 10 µM for `CCC[C@H]1CN(CCCO)C[C@@H]1NC(=O)Cn1cc(C)cn1` : what is it? 1.39

Give the measured cytotoxicity at 10 µM of O=C(c1ccc(Cl)c(Cl)c1)N1CCCC(n2cncn2)C1 (configuration not stated) . -5.16

Given the entry `CCc1cc(NCC(N)=O)nc(N2CCCCC2)n1` , report its measured cytotoxicity at 10 µM. 9.95

Can you share its cytotoxicity at 10 µM? I mean this compound: `NC(=O)c1ccc(S(=O)(=O)NCCc2ccccn2)cc1` -16

Report cytotoxicity at 10 µM for `CCOc1ccccc1OC1CCN(C(=O)c2c[nH]nn2)CC1` please. -2.48

// cytotoxicity at 10 µM lookup, key: `O=C(NCc1ccccn1)N1CC=C(c2ccccc2)CC1` 14.9

Returns the measured cytotoxicity at 10 µM for the input compound. Input: `COc1cccc(OCC(=O)N(C)c2cccnc2)c1` -2.66

Param item = `O=C(CN1CCc2[nH]c3ccccc3c2C1)NCc1ccco1` ; retrieve measured cytotoxicity at 10 µM. -3.04
